- assayed.system: KRAS (G12C)::SOS1 (Homo sapiens (Human), UniProt P01116, C118S/C51S/C80L/G12C)
- Sequence (P01116 other isoform, or with tags, fused parts or gaps G12C/C51S/C80L/C118S): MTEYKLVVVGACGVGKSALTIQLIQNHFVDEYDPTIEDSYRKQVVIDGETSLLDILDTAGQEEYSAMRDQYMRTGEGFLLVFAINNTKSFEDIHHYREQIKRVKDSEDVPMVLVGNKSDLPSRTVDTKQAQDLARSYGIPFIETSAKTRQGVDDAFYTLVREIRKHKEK
- experiment.description: KRAS::SOS1 AlphaScreen binding assay, KRAS G12C
pIC50: −log10 of the molar value.
measurement.type: pIC50

1: C[C@H](Oc1cc(N2CCNC3(CC3)C2)nc(-c2onc3c2CCC[C@@]32CCCc3sc(N)c(C#N)c32)n1)[C@@H]1C[C@@H](F)CN1C
2: C[C@H](Oc1cc(N2C[C@H]3CN(C)C[C@H]3C2)nc(-c2noc3c2CCC[C@@]32CCCc3sc(N)c(C#N)c32)n1)[C@@H]1CCCN1C
Query string: // pick larger pIC50 from pair: 1 vs 2 Identify your selection by its label.
Result string: 1

a: C[C@H](Oc1cc(N2CCNC[C@]23CCOC3)nc(-c2noc3c2CCC[C@@]32CCCc3sc(N)c(C#N)c32)n1)[C@@H]1CCCN1C
b: CO[C@H]1CCN(C)[C@@H]1[C@H](C)Oc1cc(-n2ccc(C(=O)N(C)C3COC3)n2)nc(-c2noc3c2CCC[C@@]32CCCc3sc(N)c(C#N)c32)n1
Query string: Looking only at measured pIC50, which entry is lower, a or b ? Identify your selection by its label.
Result string: a
(a: 8.70, b: 9.00)
